Molecular target: T1, human 4-1BB (h4-1BB) on transiently transfected CHO cells (human, UniProt Q07011 24-255)
T1 construct: also called TNFRSF9; CD137
Assay: flow cytometry, CHO cells transfected with human 4-1BB, antibody at 0.001 µg/ml
QUANTITY_MEASURED: percentage of cells with FITC signal (%)

BINDER	MEASUREMENT
56-2A6 (antibody, V domains shown, mouse antibody purified from ascites) VH: QIQLVQSGPELKKPGETVKISCKASGYTFTNYGMNWVKQAPGKGFKWMGWINTYTGEPTYADDFKGRFAFSLEISASTAYLQINNLKNEDTATYFCARRDYLGAMDYWGQGTSVTVSS VL: ENVLTQSPAIMSASPGEKVTMTCRASSSVSSSYLHWYQQKSGASPKLWIYSTSNLASGVPARFSGSGSGTSYSLTISSVEAEDAATYYCQQYSAYLYTFGGGTKLEIK	0.25
16-1C4 (antibody, V domains shown, mouse antibody purified from ascites) VH: QGQMQQSGAELVKPGASVKLSCKTSGFTFSSSYINWLKQKPGQSLEWIAWIFAGTGGTYYNQKFTGKAQLTVDTSSGTAYMQFSSLTTEDSAIYYCARHSPRATLFDFWGQGTTLTVSS VL: QIVLSQSPAILSASPGEKVTMTCRASSSVNHMHWYQQRTGFSPKAWIYATSNLASGVPARFSGSGSGTSYSLTISRVEAEDAATYYCQQWSSNPYTFGGGTKLEIK	0.316
45-8E2 (antibody, V domains shown, mouse antibody purified from ascites) VH: EVKLLESGGGLVQPGGSLKLSCAASGFDFSRYWMSWVRQAPGKGLEWIGEIHPDSSAINYTPSLKDKFIISRDNAKNTLYLQMSKVRSEDTALYYCARSYYGRVFDYWGQGTTLTVSS VL: DIVMTQSPATLSVTPGDRVSLSCRASQSISDYLHWYQQKSHESPRLLIKYASQSISGIPPRFSGSGSGSDFTLSINSVEPEDVGMYYCQDGHSFPPTFGAGTKLELK	1.52
